# test: Hemolytic activity in human erythrocytes at 100 ug/mL after 48 hrs relative to 0.2% saponin
# Format: ADME, cell-based, Erythrocyte
# testConditions: read-out: Activity
hemolysis at 48 h, 100 ug/mL below 2% gives Not satisfied; hemolysis at 48 h, 100 ug/mL at or above it gives Satisfied.

compound	cat
CCO[C@@]12CC[C@H]3[C@@](CC[C@H]4C(C)(C)CCC[C@@]43C)(C1)OC(=O)C2	Not satisfied
CC1(C)CCC[C@@]2(C)[C@H]1CC[C@@]1(O)CC(CCO)CC[C@@H]12 (stereo partly specified)	Not satisfied
C=C[C@@]1(O)CC[C@H]2[C@@](O)(CC[C@H]3C(C)(C)CCC[C@@]32C)C1	Not satisfied
CCOC(=O)/C=C1/CC[C@H]2[C@@](O)(CC[C@H]3C(C)(C)CCC[C@@]32C)C1	Satisfied
CCOC(=O)/C=C1\CC[C@H]2[C@@](O)(CC[C@H]3C(C)(C)CCC[C@@]32C)C1	Satisfied

----------
List of hemolysis at 48 h, 200 ug/mL values.
# test: Hemolytic activity in human erythrocytes at 200 ug/mL after 48 hrs relative to 0.2% saponin
# Assay type: ADME, cell-based, Erythrocyte
# testConditions: read-out: Activity

compound	hemolysis at 48 h, 200 ug/mL [%]
CC1(C)CCC[C@@]2(C)[C@H]1CC[C@@]1(O)C/C(=C\CO)CC[C@@H]12	102
C=C[C@@]1(O)CC[C@H]2[C@@](O)(CC[C@H]3C(C)(C)CCC[C@@]32C)C1	0.2
CCO[C@@]12CC[C@H]3[C@@](CC[C@H]4C(C)(C)CCC[C@@]43C)(C1)OC(=O)C2	0
CCOC(=O)/C=C1/CC[C@H]2[C@@](O)(CC[C@H]3C(C)(C)CCC[C@@]32C)C1	34
CCOC(=O)/C=C1\CC[C@H]2[C@@](O)(CC[C@H]3C(C)(C)CCC[C@@]32C)C1	17
CC1(C)CCC[C@@]2(C)[C@H]1CC[C@@]1(O)CC(CCO)CC[C@@H]12 (stereo partly specified)	5
